Values were extracted from patent US4714619A.

# Assay overview: Stability in aqueous solution (hplc, ambient temperature)
# Assay type: physicochemical
# Measurement setup: 0.05m phosphate buffer; pH 7.4 buffer, 9 days, ambient temperature; read-out: degradation
Where a SMILES comes first, the peptide text is derived from it.
Assay endpoint: degraded at 216 h (%)

Compound: COC(=O)[C@H](Cc1ccccc1)NC(=O)[C@@H](N)CC(=O)O [Aspartame] (HELM PEPTIDE1{D.F.[CO[*:1]]}$$$$V2.0)
Endpoint result: 100
